biological target: Ubiquitin-conjugating enzyme E2 N (Homo sapiens)
Catalogue of pIC50 readings, one per entry.
pIC50 is a log-scale quantity: -log10 of the concentration expressed in molar.

# annotated cases, reported pIC50 shown
INSERT INTO results (molecule, target_or_system, reading) VALUES
  ('C#CCOCCOCCOCCNc1nc(N2CCN(C(=O)CCCCCCCCCCNC(=O)[C@H](CCCCN)n3cc(CCO)nn3)CC2)nc(N2CCN(C(=O)CCCCCCCCCCNC(=O)[C@H](CCCCN)n3cc(CCO)nn3)CC2)n1', 'Ubiquitin-conjugating enzyme E2 N (Homo sapiens)', 5.33),
  ('O=C(CSc1nc2ccsc2c(=O)n1Cc1ccc(C(=O)O)cc1)NCC1CCCO1 (centres undefined)', 'Ubiquitin-conjugating enzyme E2 N (Homo sapiens)', 4.76),
  ('Cc1ccc(N(C(=O)c2snc(C(N)=O)c2N)C(C(=O)NCC2CCCO2)c2c[nH]c3ccccc23)cc1 (centres undefined)', 'Ubiquitin-conjugating enzyme E2 N (Homo sapiens)', 4.92);

Please look at the following molecule next.
### Prompt Which pIC50 is reported with Ubiquitin-conjugating enzyme E2 N (Homo sapiens) for this entry: N#Cc1ccc(OCC(=O)NNC(=S)NC(=O)C2CC2)cc1 ?
### Response 5.19
